Values from paper PMC10377000

Target: NT-proBNP (UniProt P16860)
Sequence (P16860 27-134): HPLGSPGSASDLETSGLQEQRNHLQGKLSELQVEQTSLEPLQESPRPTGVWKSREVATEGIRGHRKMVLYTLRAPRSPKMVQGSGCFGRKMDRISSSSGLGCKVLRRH
Assay: AuNP aggregation (LSPR, A750/A521), Hill fit; diluted urine; Hill n = 0.0751; NT-proBNP in 5 mM PBS pH 7.4; aptamer in 10 mM Tris-HCl, 0.2 mM EDTA (0.25 uM in assay); 15 min incubation; then citrate AuNPs and 40 uL 0.2 M NaCl; 25 C stated for CD sample only
Settings: protein: commercial; antiparallel G4 proposed from CD
Quantity kind: Kd (nM)
Give bare numbers, in nM.

Fill in reported Kd for this entry: NT-proBNP aptamer (structured_DNA) DNA: GGCAGGAAGACAAACAGGTCGTAGTGAAACTGTCCACCGTAGACCGGTTATCTGTTGGTCTGTGGTGCTGT 2.71
